- SYSTEM NAME: BRD4 (Homo sapiens, UniProt O60885)
- RUN DESCRIPTION: biochemical
- Format: binding
- CONDITIONS USED: one of the FRET assays described; read-out: FRET BRD4 IC50
For each entry below, report its IC50 value.

What measured IC50 is associated with [2H]C([2H])([2H])c1nnn(C)c1-c1cc2c(cc1F)c1ncc(C(C)(C)O)cc1n2C(c1ncccn1)C1CCOCC1 (single isomer, unassigned) [Example 47] on BRD4 (Homo sapiens, UniProt O60885)? < 5 nM

IC50 of Cc1ccc2c(n1)c1ccc(-c3c(C)noc3C)cc1n2Cc1ccccc1 [Example 2] on BRD4 (Homo sapiens, UniProt O60885)? < 1500 nM

Which IC50 is reported with BRD4 (Homo sapiens, UniProt O60885) for this entry: Cc1nnn(C)c1-c1ccc2c3ncc(C(C)(C)O)cc3n([C@H](c3ccccc3)C3CCOCC3)c2c1 [Example 8] ? < 1 nM

Give recorded IC50 with BRD4 (Homo sapiens, UniProt O60885) for the following compound: [2H]C([2H])([2H])c1nnn(C)c1-c1cc2c(cc1F)c1ncc(C(C)(C)O)cc1n2C(CCOC)c1ccccc1 (single isomer, unassigned) [Example 62] < 1500 nM

Item [2H]C([2H])([2H])c1nnn(C)c1-c1cc2c(cc1F)c1ncc(C(C)(C)O)cc1n2C(c1ncccc1OC)C1CCOCC1 (single isomer, unassigned) [Example 40] with BRD4 (Homo sapiens, UniProt O60885) - IC50? < 1500 nM

Notebook entry, BRD4 (Homo sapiens, UniProt O60885) assay: IC50 of Cc1nnn(C)c1-c1ccc2c3ncc(C(C)(C)O)cc3n(C(CCC(F)(F)F)CCC(F)(F)F)c2c1 [Example 4] = ? < 5 nM

###

- SYSTEM NAME: BRD4 (Homo sapiens)
- RUN DESCRIPTION: biochemical
- Type: binding
- CONDITIONS USED: read-out: FRET BRD4 IC50
MEASURED PROPERTY: IC50

Any idea what its IC50 is? The compound is `[2H]C([2H])([2H])c1nnn(C)c1-c1ccc2c3ncc(C(C)(C)O)cc3n([C@H](c3ccccc3)C3CCOCC3)c2c1` < 5 nM
